measured target: human recombinant ALDH2 enzyme (Homo sapiens)
Construct: purchased Abcam ab87415
Sequence (P05091 18-517): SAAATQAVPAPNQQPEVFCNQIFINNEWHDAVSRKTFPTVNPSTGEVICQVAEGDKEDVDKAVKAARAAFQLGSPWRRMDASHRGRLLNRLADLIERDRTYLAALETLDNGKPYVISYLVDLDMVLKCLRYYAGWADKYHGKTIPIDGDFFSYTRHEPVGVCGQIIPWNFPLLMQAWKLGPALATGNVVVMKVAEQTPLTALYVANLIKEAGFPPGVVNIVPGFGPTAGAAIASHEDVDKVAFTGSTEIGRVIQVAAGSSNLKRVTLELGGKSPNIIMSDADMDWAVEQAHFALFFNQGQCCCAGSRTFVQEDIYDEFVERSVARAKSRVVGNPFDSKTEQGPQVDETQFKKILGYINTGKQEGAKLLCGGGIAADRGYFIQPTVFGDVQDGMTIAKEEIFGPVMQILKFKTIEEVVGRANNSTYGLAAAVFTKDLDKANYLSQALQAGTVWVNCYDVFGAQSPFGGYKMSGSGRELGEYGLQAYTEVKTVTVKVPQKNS
test name: Test Example 1-2: ALDH2 activation effect (acetaldehyde oxidation rate, PicoProbe kit)
Type: biochemical
condition label: test compound 30 μM; ALDH2 1 μg/mL; 60 min measurement
attribute measured: acetaldehyde oxidation rate (no test compound = 100%)

O=C(NCc1ccc2c(c1)OCO2)c1c(Cl)cccc1Cl [Comparative Example 1, reference compound]: 275
COc1ncc(CNC(=O)c2cc(-c3ncccc3[C@@H](C)O)ccc2F)cc1F (single isomer, unassigned) [Example 4]: 155
COc1ncc(CNC(=O)c2cc(-c3ncccc3[C@@H](C)O)ccc2F)cc1F (single isomer, unassigned) [Example 5]: 170

P: O=C(NCc1ccc(OC(F)F)nc1)c1cc(-c2ncccc2CO)ccc1F
Q: O=C(NCc1cnc(OC2CC2)c(F)c1)c1cc(-c2ncccc2CO)ccc1F
Identify the entry with the smaller acetaldehyde oxidation rate (no test compound = 100%): P or Q . Response format: the label of the selected entry. P
(P: 139%, Q: 283%)

a: CC(C)Oc1ncc(CNC(=O)c2cc(-c3ncccc3CO)ccc2F)cc1F
b: CCOc1ncc(CNC(=O)c2cc(-c3ncccc3CO)ccc2F)cc1F
Identify the entry with the smaller acetaldehyde oxidation rate (no test compound = 100%): a or b . Response format: the label of the selected entry. a
